# Test system: Setaria faberi (SETFA)
# method_description: Pre-emergence biological efficacy, glasshouse pot test
# Format: in vivo
# setup_conditions: 312 h, pre-emergence, rate 1,000 g/ha, evaluated after 13 days (100=total damage to plant; 0=no damage), read-out: Percentage damage caused to weed species, SETFA
readout_type: pest or weed control at 1000 g/ha (%)
Numbers only, in %.

Some molecules with recorded pest or weed control at 1000 g/ha:
| molecule | quantitative_readout |
| --- | --- |
| COC(=O)c1nc(-c2ccc(F)c(C(F)(F)F)c2)nc(NCc2ccco2)c1Cl | 60 |
| CCN(Cc1ccccc1)c1nc(C2CC2)nc(C(=O)OC)c1Cl | 30 |

Go through the list and state pest or weed control at 1000 g/ha for each entry.
1. COC(=O)c1nc(C2CC2)nc(N(C)[C@@H](Cc2ccccc2)C(=O)OC)c1Cl [5-283 (S)]
2. COC(=O)c1nc(-c2cc(Cl)c(Cl)cc2Cl)nc(NCc2ccco2)c1Cl

1. 0
2. 0

Go through the list and state pest or weed control at 1000 g/ha for each entry.
1. COC(=O)c1nc(-c2ccc(Cl)cc2)nc(NCc2ccccc2)c1Cl
2. C=CCN(Cc1cc(Cl)ccc1OC)c1nc(C2CC2)nc(C(=O)OC)c1Cl
3. COC(=O)c1nc(Cl)nc(NCc2ccco2)c1Cl
4. COC(=O)c1nc(-c2ccc(C)cc2Cl)nc(NCc2ccco2)c1Cl

0
10
20
10

Please supply the value of reported pest or weed control at 1000 g/ha for the item COC(=O)c1nc(-c2ccc(C)c(Cl)c2)nc(NCc2ccco2)c1Cl
0

---

# Test system: Echinochloa crus-galli (ECHCG)
# method_description: Pre-emergence biological efficacy, glasshouse pot test
# Assay type: in vivo
# setup_conditions: 312 h, pre-emergence, rate 1,000 g/ha, evaluated after 13 days (100=total damage to plant; 0=no damage), read-out: Percentage damage caused to weed species, ECHCG
# Experimental: Seeds of Alopecurus myosuroides (ALOMY), Setaria faberi (SETFA), Echinochloa crus-galli (ECHCG), Solanum nigrum (SOLNI), Amaranthus retoflexus (AMARE) and Ipomea hederaceae (IPOHE) were sown in standard soil in pots. […] The test plants were then grown under controlled conditions in the glasshouse (at 24/16° C., day/night; 14 hours light; 65% humidity) and watered twice daily. After 13 days the test was evaluated (100=total damage to plant; 0=no damage to plant).
readout_type: pest or weed control at 1000 g/ha
Returns: string containing the numeric result and its unit.

| smiles_text | result |
| --- | --- |
| COC(=O)c1nc(Cl)nc(NCc2ccccc2)c1Cl | 10% |
| COC(=O)c1nc(-c2ccc(C)cc2Cl)nc(NCc2ccco2)c1Cl | 0% |
| CCCOC(=O)c1nc(C2CC2)nc(NCc2ccco2)c1Cl | 80% |
| O=C(NCc1cccs1)c1nc(C2CC2)nc(NCc2cccs2)c1Cl | 0% |
| COC(=O)c1nc(-c2ccc(Cl)c(N(C)C)c2F)nc(NCc2ccco2)c1Cl | 90% |

Go through the list and state pest or weed control at 1000 g/ha for each entry.
1. COC(=O)c1nc(C2CC2)nc(N(CCO)Cc2cccnc2)c1Cl
2. COC(=O)c1nc(C2CC2)nc(N(C)Cc2ccc(OC)cc2)c1Cl
3. CCN(Cc1ccco1)c1nc(C2CC2)nc(C(=O)OC)c1Cl
4. COC(=O)c1nc(-c2ccc(Cl)cc2F)nc(NCc2ccco2)c1Cl

["0%", "0%", "40%", "50%"]
